# TGT: UniProt P42336
# Sequence (P42336 whole entry, species assumed): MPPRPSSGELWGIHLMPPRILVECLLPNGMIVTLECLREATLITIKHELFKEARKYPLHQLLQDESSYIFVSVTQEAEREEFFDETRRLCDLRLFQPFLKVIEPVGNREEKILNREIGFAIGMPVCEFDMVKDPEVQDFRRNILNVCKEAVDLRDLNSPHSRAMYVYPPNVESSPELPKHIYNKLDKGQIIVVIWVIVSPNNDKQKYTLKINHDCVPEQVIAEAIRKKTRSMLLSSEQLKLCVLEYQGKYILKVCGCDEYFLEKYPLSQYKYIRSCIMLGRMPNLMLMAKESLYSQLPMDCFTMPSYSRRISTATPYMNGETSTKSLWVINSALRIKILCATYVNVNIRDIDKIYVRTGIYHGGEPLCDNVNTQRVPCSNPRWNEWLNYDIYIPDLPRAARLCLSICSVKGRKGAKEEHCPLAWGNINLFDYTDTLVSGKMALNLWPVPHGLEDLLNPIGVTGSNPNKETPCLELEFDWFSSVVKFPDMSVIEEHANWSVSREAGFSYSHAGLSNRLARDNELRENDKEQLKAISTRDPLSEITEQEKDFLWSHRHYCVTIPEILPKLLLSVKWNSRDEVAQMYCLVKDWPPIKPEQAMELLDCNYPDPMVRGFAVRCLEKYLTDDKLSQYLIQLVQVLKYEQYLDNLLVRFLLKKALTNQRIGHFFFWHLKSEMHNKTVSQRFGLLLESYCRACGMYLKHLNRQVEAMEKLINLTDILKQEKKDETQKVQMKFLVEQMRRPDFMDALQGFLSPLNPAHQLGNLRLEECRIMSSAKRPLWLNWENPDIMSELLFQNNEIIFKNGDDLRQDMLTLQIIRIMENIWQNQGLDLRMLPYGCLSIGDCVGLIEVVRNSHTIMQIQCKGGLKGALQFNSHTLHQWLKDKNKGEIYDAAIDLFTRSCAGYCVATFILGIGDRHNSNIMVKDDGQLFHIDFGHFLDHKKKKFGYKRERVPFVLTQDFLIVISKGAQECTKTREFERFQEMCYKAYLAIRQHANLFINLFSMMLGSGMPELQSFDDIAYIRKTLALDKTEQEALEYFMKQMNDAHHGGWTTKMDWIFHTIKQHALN
# Sequence (P27986 whole entry partner, species assumed): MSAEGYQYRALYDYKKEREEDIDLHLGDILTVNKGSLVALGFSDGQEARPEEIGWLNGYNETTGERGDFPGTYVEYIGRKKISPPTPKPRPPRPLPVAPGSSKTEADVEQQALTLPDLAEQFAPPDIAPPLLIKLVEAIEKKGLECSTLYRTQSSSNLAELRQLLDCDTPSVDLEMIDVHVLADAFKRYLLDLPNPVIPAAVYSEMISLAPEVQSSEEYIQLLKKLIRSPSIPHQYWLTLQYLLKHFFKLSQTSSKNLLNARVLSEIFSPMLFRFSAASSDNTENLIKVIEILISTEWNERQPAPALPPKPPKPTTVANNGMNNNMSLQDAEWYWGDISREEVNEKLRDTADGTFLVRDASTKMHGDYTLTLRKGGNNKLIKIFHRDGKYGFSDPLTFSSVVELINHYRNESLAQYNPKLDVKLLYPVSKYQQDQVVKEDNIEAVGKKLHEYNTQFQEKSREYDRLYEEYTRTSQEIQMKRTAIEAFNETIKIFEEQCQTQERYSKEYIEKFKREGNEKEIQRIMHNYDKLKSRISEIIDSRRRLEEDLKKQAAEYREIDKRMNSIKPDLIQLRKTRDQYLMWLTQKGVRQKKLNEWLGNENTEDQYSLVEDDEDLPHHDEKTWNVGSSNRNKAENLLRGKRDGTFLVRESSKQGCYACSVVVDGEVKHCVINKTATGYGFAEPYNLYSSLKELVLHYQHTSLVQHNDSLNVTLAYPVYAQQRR
# TEST METHOD NOTES: PI3K-alpha fluorescence polarization assay
# Format: biochemical
# CONDITION DETAILS: read-out: PI3Kα Avg. IC50
pIC50: −log10 of the molar value.
MEASUREMENT TYPE: pIC50

Examples from the recorded data:
{"columns": ["LINE NOTATION", "TGT", "EXPERIMENTAL RESULT"],
 "data": [
  ["CNC(=O)Nc1ccc2c(c1)C(=O)/C(=C/c1cn(CCCN3CCCCC3)c3ccc(OC)cc13)O2", "UniProt P42336", 7.42],
  ["N#CCCCn1c(-c2cccnc2)c(C=C2Oc3cc(O)cc(O)c3C2=O)c2ccccc21", "UniProt P42336", 5.78],
  ["Cc1c(C=C2Oc3cc(O)cc(O)c3C2=O)c2cc(F)ccc2n1C", "UniProt P42336", 5.39],
  ["Cn1c(-c2ccc(F)cc2)c(C=C2Oc3cc(O)cc(O)c3C2=O)c2ccccc21", "UniProt P42336", 5.96],
  ["Cn1cc(/C=C2\\Oc3cc(O)cc(O)c3C2=O)c2c(-c3ccc(C(=O)N4CCCC4)cc3)cccc21", "UniProt P42336", 6.26],
  ["CNC(=O)Nc1ccc2c(c1)C(=O)/C(=C/c1cn(CCCN(C)C)c3ccc(OC)cc13)O2", "UniProt P42336", 7.14]
]}

A. CCn1c(-c2ccccc2)c(C=C2Oc3cc(O)cc(O)c3C2=O)c2ccccc21
B. CCn1c(C)c(/C=C2\Oc3ccc(NC(=O)Nc4ccc(NCCN(C)C)cc4)cc3C2=O)c2cc(OC)ccc21
Form field 'greater pIC50' accepts A or B ; which applies? Reply with the label of the item you choose.
B

I. COc1ccc2[nH]c(CN(C)C)c(/C=C3\Oc4cc(O)cc(O)c4C3=O)c2c1
II. COc1ccc2c(c1)c(/C=C1\Oc3cc(O)cc(O)c3C1=O)c(C(=O)N(C)C)n2CCN1CCC(O)CC1
III. Cc1cccc2c(/C=C3\Sc4ccccc4C3=O)c[nH]c12
IV. Cc1[nH]c2ccccc2c1/C=C1\Oc2cc(O)ccc2C1=O
Sort the molecules on pIC50; start with the lowest figure. Arrange the labels as the request states and list them.
IV, III, II, I
(IV: 4.89, III: 5.34, II: 8.10, I: 8.40)
